Test system: MS2 coat protein
Experiment: apparent KD of MS2 coat protein; designed switch direction (-1 OFF switch, 1 ON switch): -1; higher = weaker reporter binding
Settings: input ligand: FMN 200 uM
Entries are sorted into classes by apparent KD of MS2 coat protein as follows: bottom: < 40 nM; middle: ≥ 40 nM and < 90 nM; top: ≥ 90 nM

SEQ STRING	CLASS
UCACGCACUGUUAGGAUAUGUAUUAUGAAGGUAGUACAGAAGGAACAUGAGGAUCACCCAUGUAAUCCUGGGUG [Eternabot (L1) Solution 61] (Eterna round: R97, puzzle: Brourd's mod of Exclusion 4)	top
AAAAUAAAGGCAGGAUAUCGGAGGCGCUGGCACCGAGAAGGGCCAGGGUGUCGUCAAAACAUGAGGAUCACCCAUGUGAGUGAC [Maanated] (Eterna round: R96, puzzle: Exclusion NG 1)	bottom
UCGUGUAUAGAGGAUAUAUUAUUUUUUAAAACAAUAGAAGGCUAAACAUGAGGAUCACCCAUGUAUUUGGUUUU [JR_Ex6_Sub053] (Eterna round: R97, puzzle: Exclusion 6)	middle
GGACCGAGUGUGAGGAUAUGCUGGUCCUUGGAUCAGCAGAAGGCACAUGAGGAUCACCCAUGUGGAGACGGUCC [Eli bmx4 4.33] (Eterna round: R97, puzzle: Brourd's mod of Exclusion 4)	top

Next, consider the following sequence.
Class (by measured apparent KD of MS2 coat protein) for GUAAGGCAUCUAGGAUAUAGUAUACGGCGAACAUGAGGAUCACCCAUGUGUCCGAAUGCGGCGAGCUAGAAGGAGAAAUUGCCC [Enuszarima] (Eterna round: R96, puzzle: Exclusion NG 2)
middle

---

# apparent KD of MS2 coat protein per entry
System: MS2 coat protein
Test: apparent KD of MS2 coat protein; designed switch direction (-1 OFF switch, 1 ON switch): -1; higher = weaker reporter binding
Settings: input ligand: none

Some entries whose results are on file:
SEQ STRING	apparent KD of MS2 coat protein
AGAUCUAGGACAGGAUAUAUAGAUGGCUUCAUCGAAGAUGAAGCCAUUACAUGAGGAUCACCCAUGUAGAAGGGUCCUAGAUCA [Omei Exc(NG) 2Av7] (Eterna round: R96, puzzle: Exclusion NG 2)	16.1 nM
GAAAACGCAAAGGAUAUUACAGAUCAAAGCUGCUGAGAAGGUUGCACAUGAGGAUCACCCAUGUGGUCUUUCAA [Mod of Quesina 18 - Jieux - Exclusion 6] (Eterna round: R97, puzzle: Exclusion 6)	27.3 nM
CCAUCACAUGAGGAUCACCCAUGUCAGGAUAUCUCAGUGCAUCCACACGGACGCAUCAAGAGAAGGGACAAAAC [Vinxlusion 4 - Jieux - Exclusion 1] (Eterna round: R97, puzzle: Exclusion 1)	34.8 nM

Give the reported apparent KD of MS2 coat protein for GCGCGCGUUGUGAGGAUAUCGGGCCCGAAAGGGCCCGAGAAGGCACAUGAGGAUCACCCAUGUAAGGUGUGUGU [-35.5, -34.8 kcal, A 23%, 0-6bis] (Eterna round: R97, puzzle: Brourd's mod of Exclusion 4) (system: MS2 coat protein).
613 nM

Give the reported apparent KD of MS2 coat protein for CAAUAACAAGCGAGAUCCUACAUGAGGAUCACCCAUGUGCUCGUCUUAAAAGGUACUGUGACGAAAGUCACGGUACC [Eli 87 + Mat D67 3] (Eterna round: R97, puzzle: Sensor, turn-off variant 1) (system: MS2 coat protein).
23 nM

Give the reported apparent KD of MS2 coat protein for GUAAGGCAUCUAGGAUAUAGUAUACGGCGAACAUGAGGAUCACCCAUGUGUCCGAAUGCGGCGAGCUAGAAGGAGAAAUUGCCC [Enuszarima] (Eterna round: R96, puzzle: Exclusion NG 2) (system: MS2 coat protein).
33.4 nM

Give the reported apparent KD of MS2 coat protein for UAAACAAGCUAAAGAUCCUACAUGAGGAUCACCCAUGUGCUCGUCUUAUAAGGUACUGUGACGAAAGUCACGGUACC [JL TOV1 3.00] (Eterna round: R97, puzzle: Sensor, turn-off variant 1) (system: MS2 coat protein).
663 nM

Give the reported apparent KD of MS2 coat protein for GCAAGCUUUUGCUCGUCUUACAUGAGGAUCACCCAUGUCGGGCCCGGGCUUCGUGGCCGGGCCCGCCGGGCGCCGGG [-37, -64.6 kcal, A 10%] (Eterna round: R97, puzzle: Sensor, turn-off variant 1) (system: MS2 coat protein).
70.4 nM

Give the reported apparent KD of MS2 coat protein for UGAUCUAGCGGAGGAUAUACAUGAGGAUCACCCAUGUAGAUGAGUGUACCGUAGUGCACUAUUGUGUAGAAGGCCGCUAGAUCU [JL ENG2 3.63] (Eterna round: R96, puzzle: Exclusion NG 2) (system: MS2 coat protein).
19.8 nM

Give the reported apparent KD of MS2 coat protein for GUGUAGCAAGGAUAUACAUGAGGAUCACCCAUGUGAAUAAGAUAGAAUAAGAUAAAGUGUAGAAGGUGCAGUGU [Excluse me!!! 8 - Jieux - Exclusion 3] (Eterna round: R96, puzzle: Exclusion 3) (system: MS2 coat protein).
41.6 nM

Give the reported apparent KD of MS2 coat protein for ACAUGUCUUGUAGGAUAUAGUUGACAUGAGGAUCACCCAUGUUGAUUCAUGUCUAUCGAAAGGGACUAGAAGGACGAGAAUAUG [Ex NG2 #16] (Eterna round: R96, puzzle: Exclusion NG 2) (system: MS2 coat protein).
32.2 nM

Give the reported apparent KD of MS2 coat protein for ACAUUACAUGAGGAUCACCCAUGUGAGGAUAUGGAGCGAGACUGUCCUGUCGCGUACACCAGAAGGCGCGGGUG [1st #51] (Eterna round: R97, puzzle: Exclusion 1) (system: MS2 coat protein).
131 nM

Give the reported apparent KD of MS2 coat protein for CGUUCGCGUGUAGGAUAUGUGUCUGUGUCGGGCGCAGAAGGACAUGAGGAUCACCCAUGUCUGCGGGUGUGGGCGCUCUCUGCG [-29, -28 kcal A 14%] (Eterna round: R96, puzzle: Exclusion NG 1) (system: MS2 coat protein).
26.9 nM

Give the reported apparent KD of MS2 coat protein for CUACUGAAGCUUUGCUUUAGUCGUACAUGAGGAUCACCCAUGUAGGAUAUACAUGAGGAUCACCCAUAGAAGGAUAGAGUGAUC [salish99_ExNG3_r04_602] (Eterna round: R96, puzzle: Exclusion NG 3) (system: MS2 coat protein).
38.6 nM

Give the reported apparent KD of MS2 coat protein for AUAACGUAGCGAGGAUAUACGCGAGAUCGUUGCGUAGAAGGUGUAUCGUUGGACUUGAGGAUCACCCAAGUGAUGAGUCCUUCC [Mutated MS2 EX1.20] (Eterna round: R96, puzzle: Exclusion NG 1) (system: MS2 coat protein).
40.7 nM

Give the reported apparent KD of MS2 coat protein for UAAAGUAUAUAGGAUAUCUAGCUGGUAACAGCUAGAGAAGGAUGUACAUGAGGAUCACCCAUGUAGAUCUCAAA [Ex6/15-A3] (Eterna round: R97, puzzle: Exclusion 6) (system: MS2 coat protein).
12.8 nM

Give the reported apparent KD of MS2 coat protein for AAGAACUAAGGAUAUACAUGAGGAUCACCCAUGUCUUUUACAUGUUACUGGCCCGCAUGUAGAAGGUAGAAAAG [Tianrasoed] (Eterna round: R96, puzzle: Exclusion 3) (system: MS2 coat protein).
85 nM

Give the reported apparent KD of MS2 coat protein for CUAGGGCACAAUUAAACACCCUAACAUGAGGAUCACCCAUGUCAGGAUAUGUAGGCAAAGACCCUACAGAAGGGACAUGUCCUA [Laus] (Eterna round: R96, puzzle: Exclusion NG 3) (system: MS2 coat protein).
15.2 nM
